B1: Protein S100-G, residues 1 to 79; numbered along this chain, P02633 (parent)
chain: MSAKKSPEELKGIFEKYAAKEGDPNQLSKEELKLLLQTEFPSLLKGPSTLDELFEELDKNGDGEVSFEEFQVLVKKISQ

# Variants of: B1
# assay: abundance fitness (aPCA) (normalised: wild type 0, dead -1); higher = more abundant; growth selection in yeast, the domain comes from the species named
# cond: Bos taurus
Classes (abundance fitness): LOW (below -0.1), MEDIUM (-0.1 to below -0.02), HIGH (-0.02 or more)

Hey, which category is MSAKKSPEELKGIFEKYAAKEGDPNQLSKEELKLLLQTEFPSLLKGPSTLDELFEELDKDGDGEVSFEEFQVLVKKISQ [N60D] in, do you know? HIGH

Also MSAKKSPEELKGIFEKYAAKEGDPNQLSKEELKTLLQTEFPSLLKGPSTLDELFEELDKNGDGEVSFEEFQVLVKKISQ [L34T] ? HIGH

Also MSAKKSPEELKGIFEKYAAKEGDPNQLSKEELKLLLQTEFPSLLKGPSTLDELFQELDKNGDGEVSFEEFQVLVKKISQ [E55Q] ? HIGH
